Data origin: patent US20080020978A1

target: CGRP1 receptor (CRLR/RAMP1 complex) of human neuroblastoma SK-N-MC cells (human, UniProt Q16602 23-461; O60894 27-148); test: cell-based or functional assay
Sequence (Q16602 23-461, chain 1 of 2): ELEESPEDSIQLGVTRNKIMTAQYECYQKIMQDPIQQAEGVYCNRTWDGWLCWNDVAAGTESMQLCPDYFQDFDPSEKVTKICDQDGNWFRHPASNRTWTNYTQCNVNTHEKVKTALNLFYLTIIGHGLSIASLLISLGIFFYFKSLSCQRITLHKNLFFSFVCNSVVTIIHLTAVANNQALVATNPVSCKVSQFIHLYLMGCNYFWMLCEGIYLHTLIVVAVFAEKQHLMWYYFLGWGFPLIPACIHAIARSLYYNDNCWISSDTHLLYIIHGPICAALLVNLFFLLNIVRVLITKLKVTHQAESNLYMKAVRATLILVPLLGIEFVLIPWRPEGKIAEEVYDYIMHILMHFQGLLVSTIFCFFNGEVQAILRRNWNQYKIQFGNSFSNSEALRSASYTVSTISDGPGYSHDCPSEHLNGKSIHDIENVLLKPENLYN
Sequence (O60894 27-148, chain 2 of 2): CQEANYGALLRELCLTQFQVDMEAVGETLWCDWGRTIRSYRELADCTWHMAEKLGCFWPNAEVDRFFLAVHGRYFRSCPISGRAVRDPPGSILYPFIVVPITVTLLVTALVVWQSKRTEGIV
trivalent 20 kDa PEG = 20 kDa PEG with three arms, each linked to one peptide copy through Cys
Response field label: string, one of label 1 (IC50 strictly below 0.6 nM) or label 0.

Example results:
binder	category.label
Ac-WVTHRLAGLLSRSGGVVRC(trivalent 20 kDa PEG)NFVPTDVGPFAF-NH2 (also: trivalent PEG joins three peptide copies) [SEQ ID NO 781]	label 1
WVTHRLAGLLSXSGGVVRKNFVPTDVGPFAF (Ac-WVTHRLAGLLS[Cit]SGG VVRKNFVPTDVGPFAF-amide) [SEQ ID NO 796]	label 1
Ac-WVTHRLAGLLSRPGGVVRK(20 kDa MeO‑PEG)NFVPTDVGPFAF-NH2 [SEQ ID NO 855]	label 0

Record WVTHRLAGLLSXSGGVVRKNFVPTDVGPFAF (Ac-WVTHRLAGLLS[hArg]SGGVVRK^(20 kDa MeO-PEG)NFVPTDVGPFAF-amide) [SEQ ID NO 787] : is its IC50 strictly below 0.6 nM? label 1

Consider next the binder Ac-WVTHQLAGLLSQSGGVVRKNFVPTDVGPFAF-NH2 [SEQ ID NO 816] in the same way. label 1

Now this one: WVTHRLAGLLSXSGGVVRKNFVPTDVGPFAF (Ac-WVTHRLAGLLS[hArg]SGGVVRKNFVPTDVGPFAF-amide) [SEQ ID NO 786] label 1

Cool, now WVTHXLAGLLSRSGGVVRKNFVPTDVGPFAF (Ac-WVTH[Cit]LAGLLSRSGGV VRKNFVPTDVGPFAF-amide) [SEQ ID NO 798] label 1

Can you handle WVTHRLAGLLSRSGGVVRNCFVPTDVGPFAF (Ac-WVTHRLAGLLSRSGGVVRNC^(20 kDa MeO-PEG)FVPTDVGPFAF-amide) [SEQ ID NO 801] next? label 0
